Tested on: ACHN
ASSAY NOTES: NCI tumour cell line growth inhibition, 48 h
The source made the active and inactive calls. Cut-off read from the data, not from the text of the source: active = GI50 up to about 1.1 µM and inactive = higher.
Answer with one of the outcomes true for active, false for inactive

[Q] Outcome? `COC(=O)c1c(O)ccc2c1c1c(n2Cc2ccccc2Cl)C(=O)c2ccccc2C1=O`
[A] false

[Q] Could you please tell me the result logged for CN(Cc1cnc2nc(N)nc(N)c2n1)c1ccc(C(=O)NC(CCC(=O)O)C(=O)O)cc1 (configuration not stated) in this assay?
[A] true

[Q] Per the records of this test, what outcome belongs to O=[N+]([O-])c1cccc(C2=NOC3C4CCC(C4)C23)c1 (configuration not stated) ?
[A] false

[Q] Lab log entry: CC(=O)OC12/C(=N/O)CCCCCC1c1ccccc12 (configuration not stated) — outcome as called in the assay?
[A] false

[Q] Given `O=C(O)c1ccc(C(c2c(O)oc3ccccc3c2=O)c2c(O)oc3ccccc3c2=O)cc1` , state the outcome it received in this test.
[A] false

[Q] Hi team, can someone confirm the assay call for `NC(=S)N/N=C(\CCC(=O)Nc1ccccc1[N+](=O)[O-])CC(=O)c1ccco1` ?
[A] false

[Q] Could you kindly confirm the outcome this assay logged for `O=C(c1ccc(Cl)cc1)N(C(=S)OCc1ccccn1)c1ccccc1` ?
[A] false

[Q] Answer briefly: the call reported for `CCOC(=O)Cn1c(=O)c2nc(SC)sc2n(CC)c1=S` in this assay.
[A] false

[Q] For `Cn1nnc2c(C(N)=S)ncn2c1=O` , which call appears in the assay record?
[A] false

[Q] How was `CN(NC(=O)c1ccc(Cl)cc1)C1=NCCCCN1` classified in this test?
[A] false

[Q] Answer briefly: the call reported for `O=C(/C=C/c1c(O)ccc2ccccc12)c1cccc2ccccc12` in this assay.
[A] false

[Q] Short answer needed: outcome of this test for `N#C/C(=C\c1ccc(O)cc1)C(N)=O` ?
[A] false

###

Tested on: T47D
ASSAY NOTES: NCI tumour cell line growth inhibition, 48 h
The source made the active and inactive calls. Cut-off read from the data, not from the text of the source: active = GI50 up to about 1.1 µM and inactive = higher.
MEASURE NAME: GI50

[Q] Form field: reported GI50 of `CO/C=C(/C(=O)OC)[C@@H]1C[C@@H]1c1ccc2ccccc2c1`
[A] 20.9 µM (inactive)

[Q] Bench note: what GI50 did O=C(CC(c1ccccc1)c1c(O)c2ccccc2oc1=O)c1ccccc1 (stereo not given) show?
[A] 58.1 µM (inactive)

[Q] Could you share which GI50 value was measured for O=C1CSC(c2ccccc2O)N1c1ccc2c(c1)Oc1c(Cl)c3c(c(Cl)c1=N2)Oc1cc(N2C(=O)CSC2c2ccccc2O)ccc1N=3 (stereo not given) ?
[A] 37.4 µM (inactive)

[Q] If you can, please state the reported GI50 value of CC1CCCN1CCCOC(=O)c1ccc(OC2C=CCCC2)cc1 (stereo not given) .
[A] 13.5 µM (inactive)

[Q] Looking for the measured GI50 of `Cc1nc2ccccc2nc1-c1ccc(/N=[N+](\[O-])c2ccc(-c3nc4ccccc4nc3C)cc2)cc1` , can you help?
[A] > 100 µM (inactive)

[Q] # input molecule: Clc1ccc(C(Cc2ccccc2)c2c(Cl)nc(N3CCNCC3)nc2Cl)cc1 (stereo not given) ; wanted: its GI50
[A] 12.8 µM (inactive)

[Q] GET /values?readout=GI50&item= `C/C(=N/Nc1nc(C)cc(O)n1)C(=O)O`
[A] > 100 µM (inactive)

[Q] What value of measured GI50 is listed for `CC(=O)NNc1nc(C)c(C(/C=C/c2ccc(NC(C)=O)cc2)=N/NS(=O)(=O)c2ccc(C)cc2)s1` ?
[A] > 100 µM (inactive)

[Q] Param item = CC(C)C1=CC23CCC4C(C)(C(=O)O)CCCC4(C)C2CC1C1C(=O)N(CCCCCCN2C(=O)C4C5CC6C7(C)CCCC(C)(C(=O)O)C7CCC6(C=C5C(C)C)C4C2=O)C(=O)C13 (stereo not given) ; retrieve measured GI50.
[A] 21.1 µM (inactive)

[Q] Entry CC(C)(C)OC(=O)N1CCC23CCCC2C(=O)CC=C13 (stereo not given) has what GI50?
[A] > 100 µM (inactive)

[Q] So what does the record say about GI50 for Nc1ccc(OCC(O)N2C(=O)c3ccccc3C2=O)cc1 (stereo not given) ?
[A] > 100 µM (inactive)

[Q] Using the record for `C=O.NNCCc1n[nH]c(=O)n1N` , report its GI50.
[A] > 100 µM (inactive)

[Q] Any idea what GI50 was measured for CC(=O)C1C(=O)C(=O)N(c2ccc(Cl)c(Cl)c2)C1=O (stereo not given) ?
[A] > 100 µM (inactive)

[Q] Consider the molecule NC(Cc1ccc(O)c(O)c1)P(=O)(O)O (stereo not given) and give its measured GI50.
[A] 18 µM (inactive)

[Q] Which GI50 is listed for CC1CC(C)C(O)C(C2CC(CC(=O)NC3CCCCC3)CC(=O)O2)C1 (stereo not given) ?
[A] > 100 µM (inactive)

[Q] Please give the measured GI50 for this molecule: `COc1ccc(C(=O)Oc2c(C#N)sc3c2c(=O)n(-c2ccccc2)c(=S)n3-c2ccccc2)cc1`
[A] 33.6 µM (inactive)

[Q] Give the measured GI50 of `O=C(c1ccc(Cl)cc1Cl)N(C(=O)N1CCC(c2ccccc2)CC1)c1ccccc1` .
[A] 53.7 µM (inactive)

[Q] Item under review: `C1COC(NC(C2CC2)C2CC2)=N1` . Reported GI50?
[A] > 100 µM (inactive)

[Q] What GI50 value was documented for this molecule, `COC(=O)[C@@H](Nc1ccccc1)[C@@]1(C(=O)OC)SC12c1ccccc1-c1ccccc12` ?
[A] 25.5 µM (inactive)

[Q] Which measured GI50 value corresponds to O=C1CCc2ccccc2O1 [DIHYDROCOUMARIN] ?
[A] > 100 µM (inactive)

###

I'd appreciate it if you could supply GI50 values for the items below.
System: K562
ASSAY NOTES: NCI tumour cell line growth inhibition, 48 h
Activity calls are given as the source filed them. Rule as the data show it: active = GI50 up to about 1.1 µM and inactive = higher.

[Q] Query: GI50; subject: `CO/C=C(/C(=O)OC)[C@@H]1C[C@@H]1c1ccc2ccccc2c1`
[A] 23 µM (inactive)

[Q] Given the entry `CCN1CCCCCCCCCC(=N/O)/C(=N\O)C1` , report its measured GI50.
[A] > 100 µM (inactive)

[Q] # query: GI50 of entry `O=C(/C=C/c1c(O)ccc2ccccc12)c1cccc2ccccc12`
[A] 51.5 µM (inactive)

[Q] Given the entry `CC1=C(C)C(=O)c2c(cc3ccccn23)C1=O` , report its measured GI50.
[A] 27.5 µM (inactive)

[Q] # get_value(readout='GI50', item= COc1cc(C2c3cc4c(cc3OC(Nc3ccccc3)C2C)OCO4)cc(OC)c1O (stereo unspecified) )
[A] 1.97 µM (inactive)

[Q] If you can, please state the reported GI50 value of `CCCCCCSC[C@H](OC(C)=O)[C@@H](OC(C)=O)[C@@H](OC(C)=O)[C@@H](COC(C)=O)OC(C)=O` .
[A] 43.9 µM (inactive)

###

Tested on: COLO 205
ASSAY NOTES: NCI tumour cell line growth inhibition, 48 h
Calls of active or inactive are those of the source. Rule as the data show it: active = GI50 up to about 1.1 µM and inactive = higher. Bridge positions count the residues as written; N and C are the ends. Square brackets hold non-standard residues; d marks the D form. Peptide text beside a SMILES is read from it. I, II: the chains in the order shown. * marks the point of attachment. Quinoxaline2carbonyl = O=C(c1cnc2ccccc2n1)*; NMeV = CN[CH](C(=O)O)C(C)C; NMeC = CN[CH](CS)C(=O)O
Reply using exactly one outcome from true (1) (active), false (0) (inactive)

[Q] // param item: N#CC(Nc1cccc(C(F)(F)F)c1)c1ccccc1C(F)(F)F (configuration not stated) ; yields the recorded call
[A] false (0)

[Q] Recorded call for CC1NC(=O)C(NC(=O)c2cnc3ccccc3n2)COC(=O)C(C(C)C)N(C)C(=O)C2CSSCC(C(=O)N(C)C(C(C)C)C(=O)OCC(NC(=O)c3cnc4ccccc4n3)C(=O)NC(C)C(=O)N2C)N(C)C1=O (configuration not stated) (I: Quinoxaline2carbonyl-SA[NMeC][NMeV] / II: Quinoxaline2carbonyl-SA[NMeC][NMeV]; ester I:1-II:C, I:C-II:1; disulfide I:3-II:3; configuration not given here) ?
[A] true (1)

###

Test system: HL-60
ASSAY NOTES: NCI tumour cell line growth inhibition, 48 h
The source made the active and inactive calls. No stated cut-off is given here; in the data, active = GI50 up to about 1.1 µM and inactive = higher.
MEASURE NAME: GI50

[Q] Bench note: what GI50 did OCC12C=CC(C1)c1ccccc12 (configuration not stated) show?
[A] > 100 µM (inactive)

[Q] Param item = `COc1ccc2c3c([nH]c2c1)CCN(CCCC(=O)c1ccc(F)cc1)C3` ; retrieve measured GI50.
[A] 15 µM (inactive)

[Q] Which GI50 value is on record for `CCN1CCCCCCCCCC(=N/O)/C(=N\O)C1` ?
[A] > 100 µM (inactive)

[Q] Can you share its GI50? I mean this compound: `O=c1c2cc(I)ccc2nc(-c2cccs2)n1/N=C/c1ccccc1`
[A] > 100 µM (inactive)

[Q] Need GI50 of `Cc1ccc(SC(CCC(Sc2ccc(C)cc2)Sc2ccc(C)cc2)Sc2ccc(C)cc2)cc1` , thanks.
[A] > 100 µM (inactive)

[Q] Could you share which GI50 value was measured for COC(=O)C1=C(C)N2CCCOC2(C)C(C(=O)OC)C1c1cccc(Cl)c1 (configuration not stated) ?
[A] 16.4 µM (inactive)

[Q] Name the recorded GI50 for NC(Cc1ccc(O)c(O)c1)P(=O)(O)O (configuration not stated) .
[A] 16.2 µM (inactive)

[Q] Please look up its GI50: `CCOC(=O)c1cn(CC)c2cc3c(cc2c1=O)SCS3`
[A] > 100 µM (inactive)

[Q] Report GI50 for `O=C(Nc1nc2ncn(CCOC(=O)c3ccccc3)c2c(=S)[nH]1)c1ccccc1` please.
[A] > 100 µM (inactive)

[Q] Item COC(=O)CCC12CCC(O1)c1ccccc12 (configuration not stated) has what recorded GI50?
[A] > 100 µM (inactive)

[Q] Given the compound CC(=O)OC12c3ccccc3-c3ccccc3C1C1C(=O)OC(=O)C12 (configuration not stated) , what is its reported GI50?
[A] > 10 µM (inactive)

[Q] Any idea what GI50 was measured for `Cn1c(-c2ccc[se]2)ccc1-c1ccc(C=O)[se]1` ?
[A] 9.31 µM (inactive)

[Q] Fill in the blank: the reported GI50 of `Cc1cc(C)nc(NS(=O)(=O)c2ccc(Nc3c4ccccc4nc4c(C(=O)Nc5ccc(S(=O)(=O)Nc6cc(C)on6)cc5)cccc34)cc2)n1` is ____.
[A] 22.8 µM (inactive)

[Q] Need GI50 of `C#CCOC(=O)[C@@H](C)c1ccc2cc(OC)ccc2c1` , thanks.
[A] 15.1 µM (inactive)

[Q] Which GI50 value is on record for COc1ccc(C(=O)OCC2OC(n3cnc4c(=S)nc[nH]c43)C(OC(=O)c3ccc(OC)cc3)C2OC(=O)c2ccc(OC)cc2)cc1 (configuration not stated) ?
[A] 26.2 µM (inactive)

[Q] I'd like to know its GI50. The compound in question is `Nc1ccc(C2=N/C(=C\c3cccc(N)c3)C(=O)O2)cc1`
[A] 57.5 µM (inactive)

[Q] Name the reported GI50 value associated with the compound `CCCNC(=O)Nc1c([N+](=O)[O-])cc(C(F)(F)F)cc1[N+](=O)[O-]`
[A] 24.5 µM (inactive)

[Q] // GI50 lookup, key: `C=CCCn1nc(-c2ccccc2)oc1=O`
[A] > 100 µM (inactive)

[Q] Item CCOC(=O)C1(Cc2ccc3ccccc3c2)CCCCCN1 (configuration not stated) has what recorded GI50?
[A] 18.8 µM (inactive)

[Q] May I ask what GI50 has been recorded for `O=C(/C=C/c1c(O)ccc2ccccc12)c1cccc2ccccc12` ?
[A] > 43.8 µM (inactive)

[Q] Find the recorded GI50 belonging to CC1(C)C(C(=O)OC(C#N)c2cccc(OCC(=O)OCc3ccccc3)c2)C1(C)C (configuration not stated) and report it.
[A] 2.3 µM (inactive)

[Q] Given C[C@]12CC(c3ccccc3O1)C(C(N)=O)C(=O)N2 (some centres not stated) , state its recorded GI50.
[A] > 100 µM (inactive)
